Values compiled from patent US9802901B2.

Test system: K. pneumoniae A-651
Assay: Bacterial growth minimal inhibitory concentration (broth microdilution, CLSI M7-A7)
Format: cell-based, Klebsiella pneumoniae
Conditions: cation-adjusted Mueller-Hinton Broth, microdilution; multiply-resistant (quinolone-resistant) strain
Kindly apply the following: T if MIC for K. Pneumoniae A-651 is less than 0.1 µg/mL, F in every other case.

| MOLECULE | TARGET_OR_SYSTEM | LABEL_CLASS |
| --- | --- | --- |
| C[C@@](CCn1cc2cc(C#CC#C[C@@H]3C[C@@H](O)[C@@H](O)C3)ccc2n1)(C(=O)NO)S(C)(=O)=O | K. pneumoniae A-651 | F |
| C[C@H](O)c1ccc(C#Cc2ccc3nn(CC[C@](C)(C(=O)NO)S(C)(=O)=O)cc3c2)cc1 | K. pneumoniae A-651 | F |
| C[C@@](CCn1cc2cc(C#CC#CCC3(O)CC(CO)C3)ccc2n1)(C(=O)NO)S(C)(=O)=O (stereo partly drawn) | K. pneumoniae A-651 | F |
| C[C@@](CCn1cc2cc(C#CC#C[C@@H]3C[C@H]3CO)ccc2n1)(C(=O)NO)S(C)(=O)=O.O=CO | K. pneumoniae A-651 | T |
| C[C@@](CCn1cc2cc(C#CC#CC3CCN(C(=O)CO)CC3)ccc2n1)(C(=O)NO)S(C)(=O)=O | K. pneumoniae A-651 | F |
| C[C@]1(CO)C[C@@H]1C#CC#Cc1ccc2nn(CC[C@](C)(C(=O)NO)S(C)(=O)=O)cc2c1 | K. pneumoniae A-651 | F |

---

Test system: Acinetobacter baumannii T6474
Test: Bacterial growth minimal inhibitory concentration (broth microdilution, CLSI M7-A7)
Assay type: cell-based
Details: Acinetobacter baumannii, T6474; cation-adjusted Mueller-Hinton Broth, microdilution; multiply-resistant (quinolone-resistant) strain; read-out: MIC for A. Baumannii T6474
Rule: MIC below 2 µg/mL gives Yes. Equal to or above 2 µg/mL gives No.

| COMPOUND | TARGET_OR_SYSTEM | LABEL_CLASS |
| --- | --- | --- |
| C[C@@](CCn1cc2cc(C#CC#CC3(O)CSC3)ccc2n1)(C(=O)NO)S(C)(=O)=O | Acinetobacter baumannii T6474 | No |
| C[C@@](CCn1cc2cc(C#CC#CC3CCN(C(=O)CN)CC3)ccc2n1)(C(=O)NO)S(C)(=O)=O.O=CO | Acinetobacter baumannii T6474 | No |
| CC(CCn1cc2cc(CCc3ccccc3)ccc2n1)(C(=O)NO)S(C)(=O)=O (racemic) | Acinetobacter baumannii T6474 | Yes |
| C[C@@](CCn1cc2cc(C#CC#CC3(CO)CCC3)ccc2n1)(C(=O)NO)S(C)(=O)=O | Acinetobacter baumannii T6474 | No |
| CC(C)(O)c1ccc(C#Cc2ccc3nn(CC[C@](C)(C(=O)NO)S(C)(=O)=O)cc3c2)cc1 | Acinetobacter baumannii T6474 | Yes |
| C[C@@](CCn1cc2cc(C#Cc3ccc(CCO)cc3)ccc2n1)(C(=O)NO)S(C)(=O)=O | Acinetobacter baumannii T6474 | Yes |
| C[C@@](CCn1cc2cc(C#CC#CC3CN(C(=O)CO)C3)ccc2n1)(C(=O)NO)S(C)(=O)=O | Acinetobacter baumannii T6474 | No |
| C[C@@](CCn1cc2cc(-c3ccc(C#C[C@H]4C[C@@H]4CO)cc3)ccc2n1)(C(=O)NO)S(C)(=O)=O (relative stereo) | Acinetobacter baumannii T6474 | Yes |
| COCCOc1ccc(-c2ccc3nn(CC[C@](C)(C(=O)NO)S(C)(=O)=O)cc3c2)cc1 | Acinetobacter baumannii T6474 | Yes |
| C[C@@](CCn1cc2cc(-c3ccc(OC(F)(F)F)cc3F)ccc2n1)(C(=O)NO)S(C)(=O)=O | Acinetobacter baumannii T6474 | Yes |
| CSc1ccc(-c2ccc3nn(CC[C@](C)(C(=O)NO)S(C)(=O)=O)cc3c2)c(F)c1 | Acinetobacter baumannii T6474 | Yes |
| C[C@@](CCn1cc2cc(C#Cc3ccc(CO)c(F)c3)ccc2n1)(C(=O)NO)S(C)(=O)=O | Acinetobacter baumannii T6474 | Yes |

---

Tested on: E. coli ATCC25922
Experiment: Bacterial growth minimal inhibitory concentration (broth microdilution, CLSI M7-A7)
Type: cell-based, Escherichia coli
Settings: cation-adjusted Mueller-Hinton Broth, microdilution; quinolone-sensitive strain
Measured MIC for E. coli ATCC25922 by item
READOUT: MIC for E. coli ATCC25922 (mg/L)

| MOLECULE | MEASURED_VALUE |
| --- | --- |
| C[C@H](O)c1ccc(C#Cc2ccc3nn(CC[C@](C)(C(=O)NO)S(C)(=O)=O)cc3c2)cc1 | 0.063 |
| C[C@@](CCn1cc2cc(C#CC#CC3CCN(C(=O)CO)CC3)ccc2n1)(C(=O)NO)S(C)(=O)=O | 0.5 |
| C[C@@](CCn1cc2cc(C#CC#CCC3(O)CC(CO)C3)ccc2n1)(C(=O)NO)S(C)(=O)=O (stereo partly drawn) | 1 |
| C[C@@](CCn1cc2cc(C#CC#C[C@@H]3C[C@H]3CO)ccc2n1)(C(=O)NO)S(C)(=O)=O.O=CO | 0.063 |
| C[C@@](CCn1cc2cc(C#CC#C[C@@H]3C[C@@H](O)[C@@H](O)C3)ccc2n1)(C(=O)NO)S(C)(=O)=O | 0.125 |

---

System: Acinetobacter baumannii T6474
Assay: Bacterial growth minimal inhibitory concentration (broth microdilution, CLSI M7-A7)
Format: cell-based
Conditions: Acinetobacter baumannii, T6474; cation-adjusted Mueller-Hinton Broth, microdilution; multiply-resistant (quinolone-resistant) strain; read-out: MIC for A. Baumannii T6474
Procedure: Minimal Inhibitory Concentrations (MICs; mg/L) were determined in cation-adjusted Mueller-Hinton Broth by a microdilution method following the description given in “Methods for Dilution Antimicrobial Susceptibility Tests for Bacteria that Grow Aerobically”, Approved standard, 7th ed., Clinical and Laboratory Standards Institute (CLSI) Document M7-A7, Wayne, Pa., USA (2006). […]
This section presents compounds with their documented MIC values.

| COMPOUND | MIC |
| --- | --- |
| C[C@@](CCn1cc2cc(C#CC#C[C@@H]3C[C@H]3CN)ccc2n1)(C(=O)NO)S(C)(=O)=O [Example 72] | > 8 µg/mL |
| C[C@@](CCn1cc2cc(C#CC#CC3CCC(NC(=O)CN)C3)ccc2n1)(C(=O)NO)S(C)(=O)=O (stereo partly shown) [Example 70] | > 32 µg/mL |
| C[C@@](CCn1cc2c(F)c(C#CC#CC3(O)COC3)ccc2n1)(C(=O)NO)S(C)(=O)=O [Example 38] | > 32 µg/mL |
| C[C@@](CCn1cc2cc(C#CC#C[C@@H]3CC[C@H](N)CO3)ccc2n1)(C(=O)NO)S(C)(=O)=O (relative stereo) [Example 61] | > 8 µg/mL |
| C[C@@](CCn1cc2cc(C#CC#CC3CN(C(=O)CN)C3)ccc2n1)(C(=O)NO)S(C)(=O)=O [Example 84] | > 32 µg/mL |
| C[C@@](CCn1cc2cc(C#CC#CC3CCNCC3)ccc2n1)(C(=O)NO)S(C)(=O)=O [Example 76] | > 32 µg/mL |
| C[C@@](CCn1cc2cc(C#CC#CC3(O)COC3)ccc2n1)(C(=O)NO)S(C)(=O)=O [Example 28] | > 32 µg/mL |

---

Test system: Acinetobacter baumannii T6474
Assay: Bacterial growth minimal inhibitory concentration (broth microdilution, CLSI M7-A7)
Format: cell-based
Settings: Acinetobacter baumannii, T6474; cation-adjusted Mueller-Hinton Broth, microdilution; multiply-resistant (quinolone-resistant) strain; read-out: MIC for A. Baumannii T6474
READOUT: MIC

| QUERY_SMILES | MEASURED_VALUE |
| --- | --- |
| C[C@@](CCn1cc2cc(C#CC#CC3(CO)COC3)ccc2n1)(C(=O)NO)S(C)(=O)=O | > 32 µg/mL |
| CC(C)(N)CC#CC#Cc1ccc2nn(CC[C@](C)(C(=O)NO)S(C)(=O)=O)cc2c1 | > 32 µg/mL |
| C[C@@](CCn1cc2cc(-c3ccc(NC(=O)CO)cc3)ccc2n1)(C(=O)NO)S(C)(=O)=O | > 32 µg/mL |

---

Tested on: Acinetobacter baumannii T6474
Experiment: Bacterial growth minimal inhibitory concentration (broth microdilution, CLSI M7-A7)
Type: cell-based
Settings: Acinetobacter baumannii, T6474; cation-adjusted Mueller-Hinton Broth, microdilution; multiply-resistant (quinolone-resistant) strain; read-out: MIC for A. Baumannii T6474

| QUERY_SMILES | TARGET_OR_SYSTEM | MIC |
| --- | --- | --- |
| C[C@@](CCn1cc2cc(C#CC#CC3(N)CC3)ccc2n1)(C(=O)NO)S(C)(=O)=O | Acinetobacter baumannii T6474 | > 32 µg/mL |
| CC(C)(N)C(=O)N1CC(C#CC#Cc2ccc3nn(CC[C@](C)(C(=O)NO)S(C)(=O)=O)cc3c2)C1 | Acinetobacter baumannii T6474 | > 32 µg/mL |
| C[C@@](CCn1cc2cc(C#CC#CC3(CO)CC3)ccc2n1)(C(=O)NO)S(C)(=O)=O | Acinetobacter baumannii T6474 | > 32 µg/mL |
| C[C@@](CCn1cc2cc(C#CC#C[C@H](O)CO)ccc2n1)(C(=O)NO)S(C)(=O)=O | Acinetobacter baumannii T6474 | > 32 µg/mL |
